# System: 966289-007-R4-J1-PDC complex spheroid viability;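 note: spheroids exposed to the agents for seven days before readout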
# method_description: Anticancer human tumor 966289-007-R4-J1-PDC patient-derived pancreatic adenocarcinoma cell line growth inhibition [GQUAD]; active = viability on the fitted dose curve at most 10% of control; inactive = the rest
# experimental_setup: second compound 1 µM; first compound 0.0316 µM
Would you mind answering with one of these outcomes? true (active), false (inactive)

Worked examples, 5 compounds total:
[[record]]
compound = "COc1cccc2c1C(=O)c1c(O)c3c(c(O)c1C2=O)CC(O)(C(=O)CO)CC3OC1CC(N)C(O)C(C)O1 (stereo not given) + Cc1cnc(CNC(=O)c2c(=O)c3ccc(N4CCCN(C)CC4)nc3n3c2sc2ccccc23)cn1"
class_assignment = "true"

[[record]]
compound = "CCCS(=O)(=O)Nc1ccc(F)c(C(=O)c2c[nH]c3ncc(-c4ccc(Cl)cc4)cc23)c1F + Cc1cnc(CNC(=O)c2c(=O)c3ccc(N4CCCN(C)CC4)nc3n3c2sc2ccccc23)cn1"
class_assignment = "true"

[[record]]
compound = "CCc1c2c(nc3ccc(O)cc13)-c1cc3c(c(=O)n1C2)COC(=O)[C@]3(O)CC + CN(C)c1ccc(Nc2c3ccc(NC(=O)CCN4CCCC4)cc3nc3cc(NC(=O)CCN4CCCC4)ccc23)cc1"
class_assignment = "true"

[[record]]
compound = "O=c1[nH]cc(F)c(=O)[nH]1 + Cc1cnc(CNC(=O)c2c(=O)c3ccc(N4CCCN(C)CC4)nc3n3c2sc2ccccc23)cn1"
class_assignment = "true"

[[record]]
compound = "Cc1cccc(N(C)C(=O)C2C(O)CCN2c2nc(C)cc(C(F)(F)F)c2C#N)c1 (stereo not given) + CN(C)c1ccc(Nc2c3ccc(NC(=O)CCN4CCCC4)cc3nc3cc(NC(=O)CCN4CCCC4)ccc23)cc1"
class_assignment = "false"


Task: Which outcome did this test record for the compound COc1cccc2c1C(=O)c1c(O)c3c(c(O)c1C2=O)CC(O)(C(=O)CO)CC3OC1CC(N)C(O)C(C)O1 (stereo not given) + CN(C)c1ccc(Nc2c3ccc(NC(=O)CCN4CCCC4)cc3nc3cc(NC(=O)CCN4CCCC4)ccc23)cc1 ?
Output: false

Task: Which outcome did this test record for the compound Nc1ccn(C2OC(CO)C(O)C2(F)F)c(=O)n1 (stereo not given) + Cc1[nH]c2ccc(F)cc2c1-c1nc2c3cccnc3c3ncccc3c2[nH]1 ?
Output: true

Task: Which outcome did this test record for the compound Cc1[nH]c2ccccc2c1CCNCc1ccc(/C=C/C(=O)NO)cc1 + Cc1cnc(CNC(=O)c2c(=O)c3ccc(N4CCCN(C)CC4)nc3n3c2sc2ccccc23)cn1 ?
Output: true
